# Tested on: P388 cells
# protocolSummary: Inhibition of nucleic acid synthesis in P388 cells in vitro
# Assay type: cell-based, murine
# studyConditions: [14C]uridine incorporation, read-out: IC50, RNA synth
pIC50: −log10 of the molar value. *1 amine or outer side, *2 acyl side, *3 side chain or, on linkers, in order; H or OH if unused. Where a SMILES comes first, the peptide text is derived from it. Bridges are numbered along the chain shown (N, C = ends). Roman numbers before positions name the chains, in order. [ ]: non-standard residue; d: D form. Actinocin(9to1) = Cc1c2oc3c(C)ccc(C(=O)[*:1])c3nc-2c(C(=O)[*:2])c(N)c1=O; NMeV = CN[C@H](C(=O)O)C(C)C; Sar = CNCC(=O)O

{"columns": ["compound", "pIC50"],
 "data": [
  ["Cc1c2oc3c(C)c(O)c(N)c(C(=O)N[C@@H]4C(=O)N[C@H](C(C)C)C(=O)N5CCC[C@H]5C(=O)N(C)CC(=O)N(C)[C@@H](C(C)C)C(=O)O[C@@H]4C)c3nc-2c(C(=O)N[C@@H]2C(=O)N[C@H](C(C)C)C(=O)N3CCC[C@H]3C(=O)N(C)CC(=O)N(C)[C@@H](C(C)C)C(=O)O[C@@H]2C)c(N)c1=O", 7.82],
  ["Cc1c2oc3c(C)c4oc(CC(=O)NCCCCN)nc4c(C(=O)N[C@@H]4C(=O)N[C@H](C(C)C)C(=O)N5CCC[C@H]5C(=O)N(C)CC(=O)N(C)[C@@H](C(C)C)C(=O)O[C@@H]4C)c3nc-2c(C(=O)N[C@@H]2C(=O)N[C@H](C(C)C)C(=O)N3CCC[C@H]3C(=O)N(C)CC(=O)N(C)[C@@H](C(C)C)C(=O)O[C@@H]2C)c(N)c1=O", 7.26],
  ["Cc1c2oc3c(C)ccc(C(=O)N[C@@H]4C(=O)N[C@H](C(C)C)C(=O)N5CCC[C@H]5C(=O)N(C)CC(=O)N(C)[C@@H](C(C)C)C(=O)O[C@@H]4C)c3nc-2c(C(=O)N[C@@H]2C(=O)N[C@H](C(C)C)C(=O)N3CCC[C@H]3C(=O)N(C)CC(=O)N(C)[C@@H](C(C)C)C(=O)O[C@@H]2C)c(N)c1=O [AMD (1), Actinomycin D] (I: T[dV]P[Sar][NMeV] / II: T[dV]P[Sar][NMeV]; ester I:1-I:C, II:1-II:C; linker I:N-II:N via Actinocin(9to1))", 7.30],
  ["Cc1c2oc3c(C)c4oc(-c5ccccc5)nc4c(C(=O)N[C@@H]4C(=O)N[C@H](C(C)C)C(=O)N5CCC[C@H]5C(=O)N(C)CC(=O)N(C)[C@@H](C(C)C)C(=O)O[C@@H]4C)c3nc-2c(C(=O)N[C@@H]2C(=O)N[C@H](C(C)C)C(=O)N3CCC[C@H]3C(=O)N(C)CC(=O)N(C)[C@@H](C(C)C)C(=O)O[C@@H]2C)c(N)c1=O", 7.15]
]}
